Each entry below carries its reported viability at 72 h, 10 µM.
# assay.protocol: Antiproliferative activity against human NHFB cells assessed as cell growth at 10 uM incubated for 72 hrs by MTT assay relative to untreated control
# Type: cell-based
# condition.label: read-out: Activity
quantity.measured: viability at 72 h, 10 µM (%)

| compound | quantity.measured | observed.measurement |
| --- | --- | --- |
| COc1ccc(C2CC(c3ccc4ccccc4c3)=NN2C2=NC(=O)/C(=C3/C(=O)Nc4ccc(OC)cc43)S2)cc1 (stereo not drawn) | viability at 72 h, 10 µM | 13.3 |
| COc1ccc(C2CC(c3cccs3)=NN2C2=NC(=O)/C(=C3/C(=O)Nc4ccc(OC)cc43)S2)cc1 (stereo not drawn) | viability at 72 h, 10 µM | 64.4 |
| COc1ccc(C2CC(c3ccc4ccccc4c3)=NN2C2=NC(=O)/C(=C3/C(=O)Nc4ccc(C)cc43)S2)cc1 (stereo not drawn) | viability at 72 h, 10 µM | 11.8 |
| COc1ccc(C2CC(c3cccs3)=NN2C2=NC(=O)/C(=C3/C(=O)Nc4c(Br)cccc43)S2)cc1 (stereo not drawn) | viability at 72 h, 10 µM | 46.3 |
| COc1ccc(C2CC(c3ccc4ccccc4c3)=NN2C2=NC(=O)/C(=C3/C(=O)Nc4c(Br)cccc43)S2)cc1 (stereo not drawn) | viability at 72 h, 10 µM | 47.3 |
| COc1ccc(C2CC(c3cccs3)=NN2C2=NC(=O)/C(=C3/C(=O)Nc4c(C)cc(C)cc43)S2)cc1 (stereo not drawn) | viability at 72 h, 10 µM | 80.3 |
| COc1ccc(C2CC(c3ccc4ccccc4c3)=NN2C2=NC(=O)/C(=C3/C(=O)Nc4c(F)cccc43)S2)cc1 (stereo not drawn) | viability at 72 h, 10 µM | 89.4 |
| COc1ccc(C2CC(c3cccs3)=NN2C2=NC(=O)/C(=C3/C(=O)Nc4ccc(F)cc43)S2)cc1 (stereo not drawn) | viability at 72 h, 10 µM | 20 |
